Experiment: Half life in mouse liver microsomes at 5 uM by LC/MS/MS analysis in presence of NADPH
Type: ADME, Microsome
readout_name: half-life at 5 µM

stdin: Report half-life at 5 µM, nothing else, for this molecule: COc1cccc(/C=N/N(C(=O)C(F)(F)F)c2ccc(C)cc2C)c1 [J147]
stdout: < 4 min

----------
Assay: Half life in BALB/c mouse blood at 20 mg/kg, orally administered in corn oil by LC/MS/MS analysis
Settings: po
readout_name: half-life (h)
Write the number in h without appending the unit.

stdin: Report half-life, nothing else, for this compound: COc1cccc(/C=N/N(C(=O)C(F)(F)F)c2ccc(C)cc2C)c1
stdout: 2.5
